Recorded MFFT by entry
- ASSAY_TEXT: MFFT of pigmented and complete PUDs
- Format: physicochemical
- CONDITIONS: pigmented and complete PUD, 3 wt. % coalescing agent
I only need the number, in °C, no unit after it.

// solved cases for MFFT follow
COC(=O)CCCCC(=O)N(C)C [Ester amide] | −0.6
CN1CCCCCC1=O | −0.8
CCCCN1CCCC1=O [NBP, N-butyl pyrrolidone, reference compound] | −0.7
CCN1CCCCCC1=O | −2.4

## Input For CN1CCCC1=O [NMP, N-methyl pyrrolidone, reference compound] , what is its reported MFFT?
## Output −1.4

---

- ASSAY_TEXT: Minimum film forming temperature, non-pigmented resin + coalescing agent
- Format: physicochemical
- CONDITIONS: resin with 5 wt. % coalescing agent, film thickness 350 μm
QUANTITY: MFFT (°C)
Entry rule: numbers only, all in °C.

CCCCN1CCCCCC1=O | −1.3
CCN1CCCCCC1=O | −1.4
CCCCN1CCCC1=O [NBP, N-butyl pyrrolidone, reference compound] | −0.4

Consider now this further compound.
## Input Using the record for `CN1CCCCCC1=O` , report its MFFT.
## Output −0.8
